// data source = patent US20210309978A1

System: esterase enzyme
PROTOCOL TEXT: Effect of solutions (solvents) on enzyme activity
Format: biochemical, microflora of Ac1göl (Aci Lake)
MEASUREMENT CONDITIONS: 10% solution added into the reaction
Reported values of Effect of solutions on activity, Activity (%) for individual entries
Numbers only here, please. The scale is %.

What value of Effect of solutions on activity, Activity (%) has been reported for the following compound? `CCCCCC`
22.6

Repeat for the following compound: ClC(Cl)Cl [Chloroform, chloroform]
5.1

Lookup `CO`
81.1

Field entry: C[S+](C)[O-] [DMSO, dimethyl sulphoxide]
92

// next record CN(C)C=O [DMF, dimethyl formamide]
33.2

And what about the compound `CC(C)=O` ?
36

Repeat with `CC(C)O`
21.4

Next: `OCC(O)CO`
104.2

Here is the next compound: `CCO`
45.1

###

Effect of solutions on stability, Activity (%) 30% Solution values for the molecules below.
Test system: esterase enzyme
PROTOCOL TEXT: Effect of solutions (solvents) on enzyme stability (24 hours incubation)
Type: biochemical, microflora of Ac1göl (Aci Lake)
MEASUREMENT CONDITIONS: enzyme incubated 24 hours in buffer containing 30% solution
Procedure: 6. […] The final concentration of the enzyme and substrate have been 1 μM and 1 mM respectively and absorbance measurements have been taken at 410 nm. The activity has been calculated by means of the below formula and one unit of activity has been defined as the enzyme amount which produces 1 μmol product in 1 minute. […]
Include the unit right after the number.

Reference set (5 entries):
[[record]]
molecule = "CC(C)=O [Acetone, acetone]"
measured = "85.2 ± 5.6%"

[[record]]
molecule = "CO [Methanol, methanol]"
measured = "99.4 ± 6.6%"

[[record]]
molecule = "CCCCCC [Hexane, hexane]"
measured = "100.2 ± 4.9%"

[[record]]
molecule = "CC(C)O [2-Propanol, 2-propanol]"
measured = "62.3 ± 4.3%"

[[record]]
molecule = "OCC(O)CO [Glycerol, glycerol]"
measured = "106.9 ± 3.1%"


Entry under review: ClC(Cl)Cl [Chloroform, chloroform] . Reported Effect of solutions on stability, Activity (%) 30% Solution?
100.2 ± 5.6%

Do the same for CCO [Ethanol, ethanol] please
98.2 ± 0.5%

Proceed to CN(C)C=O [DMF, dimethyl formamide]
105.3 ± 1.6%

Do the same for C[S+](C)[O-] [DMSO, dimethyl sulphoxide] please
102.2 ± 4.8%

###

Test system: esterase enzyme
PROTOCOL TEXT: Effect of metals on enzyme activity
Type: biochemical, microflora of Ac1göl (Aci Lake)
MEASUREMENT CONDITIONS: 5 mM metal
The label met is reserved for Activity (%) (5 mM metal) strictly under 1%; not met covers values equal to or above it.

Here's what some known entries look like.
[[record]]
compound = "[Cl-].[Cl-].[Mg+2] [MgCl2]"
target_desc = "esterase enzyme"
class_label = "not met"

[[record]]
compound = "[Ca+2].[Cl-].[Cl-] [CaCl2]"
target_desc = "esterase enzyme"
class_label = "not met"

[[record]]
compound = "O=S(=O)([O-])[O-].[Fe+2] [FeSO4]"
target_desc = "esterase enzyme"
class_label = "met"

[[record]]
compound = "O=[N+]([O-])[O-].[Ag+] [AgNO3]"
target_desc = "esterase enzyme"
class_label = "met"

[[record]]
compound = "O=S(=O)([O-])[O-].[Zn+2] [ZnSO4]"
target_desc = "esterase enzyme"
class_label = "not met"


Is it true that Activity (%) (5 mM metal) reported for [Cl][Ni][Cl] [NiCl2] is less than 1%?
met

Note, next up: O=S(=O)([O-])[O-].[Cu+2] [CuSO4]
not met

Same thing, different compound: [Cl-].[K+] [KCl]
not met

And O=S(=O)([O-])[O-].[Mn+2] [MnSO4] ?
not met

O=S(=O)([O-])[O-].O=S(=O)([O-])[O-].O=S(=O)([O-])[O-].[Al+3].[Al+3] [Al2SO4] , same question.
met

###

Tested on: esterase enzyme
PROTOCOL TEXT: Effects of inhibitors and detergents on enzyme activity
Assay type: biochemical, microflora of Ac1göl (Aci Lake)
MEASUREMENT CONDITIONS: 1 mM inh.
READOUT NAME: Activity (%) (1 mM inh.)
Give your result in % as a bare value.

Solved entries:
[[record]]
molecule = "O=S(=O)(F)Cc1ccccc1 [PMSF, phenylmethanesulfonyl fluoride]"
readout_name = "Activity (%) (1 mM inh.)"
measured = 1.3

[[record]]
molecule = "CCCCCCCCCCCCCCCC[N+](C)(C)C.[Br-] [CTAB, cetrimonium bromide]"
readout_name = "Activity (%) (1 mM inh.)"
measured = 91

[[record]]
molecule = "CCCCCCCCCCCCOS(=O)(=O)[O-].[Na+] [SDS, sodium dodecyl sulphate]"
readout_name = "Activity (%) (1 mM inh.)"
measured = 85.6


Notebook entry, esterase enzyme assay: Activity (%) (1 mM inh.) of O[C@H](CS)[C@H](O)CS (racemic) = ?
36.7

Record: `O=C(O)CN(CCN(CC(=O)O)CC(=O)O)CC(=O)O`
89.6

###

System: esterase enzyme
PROTOCOL TEXT: Effect of metals on enzyme activity
Type: biochemical, microflora of Ac1göl (Aci Lake)
MEASUREMENT CONDITIONS: the enzyme of the invention in presence of metal ion
# reported Metal tolerance, This study; entries follow

[[record]]
mol = "[Fe+2]"
readout_name = "Metal tolerance, This study"
measured = 116

[[record]]
mol = "[Mn+2]"
readout_name = "Metal tolerance, This study"
measured = 130

[[record]]
mol = "[Ni+2]"
readout_name = "Metal tolerance, This study"
measured = 110


Requested read-out: Metal tolerance, This study. Entry: `[Co+2]`
113

Record: `[K+]`
128

Continue with `[Cu+2]`
118

###

# Lookup of reported Effect of solutions on stability, Activity (%) 15% Solution keyed by entry
Test system: esterase enzyme
PROTOCOL TEXT: Effect of solutions (solvents) on enzyme stability (24 hours incubation)
Assay type: biochemical, microflora of Ac1göl (Aci Lake)
MEASUREMENT CONDITIONS: enzyme incubated 24 hours in buffer containing 15% solution
Form entry: value (%) — number only.

The examples below pair each entry with its known result.
[[record]]
compound = "CO"
measured = 108.5

[[record]]
compound = "ClC(Cl)Cl [Chloroform, chloroform]"
measured = 97.9

[[record]]
compound = "OCC(O)CO"
measured = 113.3

[[record]]
compound = "CCCCCC"
measured = 113.6

[[record]]
compound = "CN(C)C=O [DMF, dimethyl formamide]"
measured = 121.3


Data request, read-out Effect of solutions on stability, Activity (%) 15% Solution, for `CC(C)=O`
113.7

// query: `CCO`
105.9

// repeat for C[S+](C)[O-] [DMSO, dimethyl sulphoxide] and report
106.1

Next compound: `CC(C)O`
104.3

###

Test system: esterase enzyme
PROTOCOL TEXT: Effects of inhibitors and detergents on enzyme activity
Format: biochemical, microflora of Ac1göl (Aci Lake)
MEASUREMENT CONDITIONS: 5 mM inh.
READOUT NAME: Activity (%) (5 mM inh.)
# unit: % | format: bare number

Solved cases (4 shown):
[[record]]
compound = "O=C(O)CN(CCN(CC(=O)O)CC(=O)O)CC(=O)O [EDTA, ethylene diamine tetraacetic acid]"
measured = 66.5

[[record]]
compound = "CCCCCCCCCCCCCCCC[N+](C)(C)C.[Br-] [CTAB, cetrimonium bromide]"
measured = 1.3

[[record]]
compound = "O[C@H](CS)[C@H](O)CS (racemic) [DTT, dithiothreitol]"
measured = 25.1

[[record]]
compound = "CCCCCCCCCCCCOS(=O)(=O)[O-].[Na+] [SDS, sodium dodecyl sulphate]"
measured = 5.0


Note: attention shifts to another entry.
Can you look up Activity (%) (5 mM inh.) on esterase enzyme for O=S(=O)(F)Cc1ccccc1 [PMSF, phenylmethanesulfonyl fluoride] ?
0.2

###

Test system: esterase enzyme
PROTOCOL TEXT: Effect of metals on enzyme activity
Type: biochemical, microflora of Ac1göl (Aci Lake)
MEASUREMENT CONDITIONS: 1 mM metal
Each record here notes measured Activity (%) (1 mM metal).
The response must be a number in % with no trailing unit.

These recorded examples may help you get a feel for the data.
[[record]]
mol = "[Cl-].[K+]"
target_desc = "esterase enzyme"
measured = 127.9

[[record]]
mol = "[Cl][Ni][Cl]"
target_desc = "esterase enzyme"
measured = 110.4

[[record]]
mol = "O=S(=O)([O-])[O-].[Fe+2]"
target_desc = "esterase enzyme"
measured = 115.7

[[record]]
mol = "O=S(=O)([O-])[O-].[Mn+2]"
target_desc = "esterase enzyme"
measured = 130.4

[[record]]
mol = "O=[N+]([O-])[O-].[Ag+]"
target_desc = "esterase enzyme"
measured = 31.6


# Activity (%) (1 mM metal) lookup, item `[Cl-].[Cl-].[Mg+2]`
130.2

Follow-up item: `O=S(=O)([O-])[O-].[Cu+2]`
117.5
